test: yeast display, Sf9 membrane polyspecificity reagent, FACS + sequencing; frameworks hold sequencing errors
quantity: polyreactivity (PSR sort gate)

Reported polyreactivity (PSR sort gate) ( QVQLVESGGGLVQAGGSLRLSCAASGSTIVDYAMGWYRQAPGKERELVAAITSGDSTNYADSVKGRFTISRDNAKNTVYLLMKSLKPEDTAVYYCAARLRYSFWYWDDYWGQGTQVSVSS ) = high polyreactivity

Reported polyreactivity (PSR sort gate) ( QVQLVESVGGLVQAGGSLRLSCAASGRTISRNAMGWYRQAPGKERELVAAISASGGRTYYADSVKGRFTISRDNAKNTVYLQMKSLKPEDTEVYFCAASTTGYRYYDYCGQGTQVTVSS ) = high polyreactivity

###

assay: yeast display, Sf9 membrane polyspecificity reagent, FACS + sequencing; frameworks hold sequencing errors
quantity: polyreactivity (PSR sort gate)

Some solved cases for reference:
Reported polyreactivity (PSR sort gate) ( QVQIVESGGGLVQAGGSLRLSCAASGRTLYGYAMGWYRQAPGKEREMVASIRSGGSTNYADSVKGRFTISRDNAKNTVYLQMNCLKPEDTAVYYCADDPYYSYGYYHAHGRDVGYWGQGTQVTVSS ) = low polyreactivity

Reported polyreactivity (PSR sort gate) ( QVQLVESVVGLVQARGSLRLSSAATGRTFSRYAMGWYRQAPGKESELVATISWSGTSKYYADSVKGRFTISRDNAKNTVYLQMNSLKPEETAVYYCDAYYLTRFSILYYYWGLGTQVTVSS ) = high polyreactivity

Reported polyreactivity (PSR sort gate) ( QDQLVESGGGLVQAGGSLRLSCAASGRTFRYNTMGWYRQAPGKERELVASISWGGGSTYYADSVKGRFTISRDTAKNTVYLQMNSLKPEDTAVYYCAARRWGQFRFEYWGQGTQVTVSS ) = high polyreactivity

Reported polyreactivity (PSR sort gate) ( QVQLVESGGGLVQAGGSLRFSCAASGRIFWYYVMGWDRQAPGKEREFVASISSGGSTYYADSVKGRFTISRDNANNTVYLQMNSLKPEDTAVYYCNAYVYGQRVWYDYWGQGTQVTVSS ) = high polyreactivity

Reported polyreactivity (PSR sort gate) ( QDQLVESGGGLVQAGGSLRLSCAASGFIFGLYAMGWYRQAPGKERELVAAISSGGSTYYADSVKGRFTISRDNAKNTVYLQMNSLKPEDTAVYYCAAYYVYSEYDYWGQGTQVTVSS ) = high polyreactivity

Reported polyreactivity (PSR sort gate) ( QVQVVESGGGLVQAGGSLRLSCAASGRTFDVYAMGWYRQAPGKERELVAAITERGSTYYADSVKRRFTISRDNAKNTDYLQMNSLKPVDTAVYDCAARTSGDGCIYYYWGQGTQVTVSS ) = high polyreactivity

Next:
Reported polyreactivity (PSR sort gate) ( QVQLVESGGGLVQAGGSLRISCAASGFTFWLYAMGWYRQAPGKERELVATISWSGGSTYYADSVKGRFTISRDNAKNTVYVQMNSLKPEDTAVYYCATRYRSYSVFGYGYWGQGTQVTVSS ) = high polyreactivity

###

experiment: yeast display, Sf9 membrane polyspecificity reagent, FACS + sequencing; frameworks hold sequencing errors
quantity: polyreactivity (PSR sort gate)

Some solved cases for reference:
Reported polyreactivity (PSR sort gate) ( QVQLVESGGGLVQAGGSLRLSCAASGSIFYFYTMGWYRQAPGKEREFVAAINGIGGSTYYADSVKGRFTISRDNAKNTVYLQMNSLKPEDTAVYYCAADAPWFKRNARKYNFWGQGTQVTVSS ) = low polyreactivity

Reported polyreactivity (PSR sort gate) ( QVQLVESGGGLVQAGGSLRLSCAASGIIFVYYAMGWYRQAPGKERELVAAISTGGTRTYYADSVKGRFTISRDNAKNTVYLQMNSLKPEDTAVYYCNARGRYRKSERRAFDYWGQGTQVTVSS ) = high polyreactivity

Reported polyreactivity (PSR sort gate) ( QVQLVESGGGLVQAGGSLRLSCSASGGTFEFYTMGWYRQAPGKERELVAAISWSGSSTYYADSVKGRFTISRDNAKNTVYLQMNSLKPEDTAVYYCAAYPRPYIGYTDGYVWYEFDYWGQGTQVTVSS ) = low polyreactivity

Reported polyreactivity (PSR sort gate) ( QVQLVESGGGLVQAGGSLRLSCAASGRIFWYYAMGWYRQAPGKERELVDAISVDGGSTYDADSVKGRFTISRDNAKNTVYLQMNSLKPEDTAIYYCAAQKYPGFTHGYWGQGTQVTVSS ) = low polyreactivity

Reported polyreactivity (PSR sort gate) ( QVQLVESGGGLVQAGGSLRLSCAASGLNFGSNAMGWYRQAPGKERELVAAITWSGGSTYYADSVKGRFTISRDNAKNTVYLQMNSLKPEDTAVYYCAAKRWYRYYWGQGTQVTVSS ) = high polyreactivity

Next:
Reported polyreactivity (PSR sort gate) ( KVQLVESGGGLVQAGGSLRLSCAASGFTFEGYAMGWYRQAPGKEMELVAAISSNGGRTYYADSVKGRFTISRDNAKNTVYLQMNSLKPEDTAVYYCNARRAYSGPDYDYYHGRRYDYWGQGTQVTVSS ) = low polyreactivity

Reported polyreactivity (PSR sort gate) ( QVQLLETGRGLFQEGGSLRLSCAASGGTFGAYVMGWYRQAPGKERELVAAISRSGTRTYYADSVKRRFTISRDNEKNTVYLQMNWLKPEDTAVYYCNAVGYTNRYDDWGQGTQVTVSS ) = high polyreactivity

Reported polyreactivity (PSR sort gate) ( QVQLVESGGGLVQAGGSLRLSCAASGRTFLYNVMGWYRQAPGKERELVAAITSGGRTYYADSVKGRFTISRDNAKNTVYLQMNSLKPEVTAVYYCAADPYFYYYGYDYWGQGTQVTVSS ) = low polyreactivity

Reported polyreactivity (PSR sort gate) ( QVQLVESGGGLVQAGGSLRLSCAASGRIFGTYAMGWYRQAPGKERELVAAITSSGGRTYYADSVKGRFTISRDNAKNTVYLQMNRLKPEDTAVYYCAAYPWYRMWGQGTQVTVSS ) = high polyreactivity

Reported polyreactivity (PSR sort gate) ( QVQLVESGGGLVQAGGSLRLSCAASGRTFTSYPMGWYRQAPGKERELVAVITRRGGSTSYADSVKGRFTISRDNAKHTVYLQMNSLKPEDTAVYYCAAKRTWPDVKYIRYGYWGQGTQVTVSS ) = high polyreactivity

Reported polyreactivity (PSR sort gate) ( QVQLVESGGGLVQAGGSLRLSCAASGSTSYYYTMGWYRQAPGKERELVASISSSGTSTYYADSVKGRFTISRDNPKNTVYLQMNSLKPEDTAVYYCAATADNNTPSGYDYWGQGTQVTVSS ) = high polyreactivity

###

test: yeast display, Sf9 membrane polyspecificity reagent, FACS + sequencing; frameworks hold sequencing errors
quantity: polyreactivity (PSR sort gate)

Some solved cases for reference:
Reported polyreactivity (PSR sort gate) ( QVQLVESGGGLVQAGRSLRLSCAASGSTIVGYAIGWYRQAPGKDRELVAAISGSGTSTYYADSVKGRFTISRDNAKNTVYLHMISMKPEHTAVYYCIADPIFVYSSYNFWGQGTQVTVSS ) = low polyreactivity

Reported polyreactivity (PSR sort gate) ( QVQIVESGGGLVQAGGSLRLSCAASGSIFRYYALGWYRQAPGKERELVAAISSGTITNYADSVKGRFTISRDNAKNTVYLQMNSLKPEDTAVYYCAADTWYLGYPDYWLDYWGQGTQVTVSS ) = low polyreactivity

Reported polyreactivity (PSR sort gate) ( QVQLVESGGGLVQAGGSLRLSCAASGSILFNNAMGWYRQAPGKEWELVAAMGANGGNTYYADSVKGRFTISCDNATNTVYLQMTSLKPEDTAVYYCSADKTLYGGGAWTRWFHYTYGYWGQGTQVTVSS ) = high polyreactivity

Reported polyreactivity (PSR sort gate) ( QVQLVESGGGLVQAGGSLRLSCAASGRIFRYNAMGWYRQPPGKEREFVARISVITGRTYYADSVKGRFTISRDNAKNTVYLQMNSLKPEDTAVYFCAADAGYNYRYLLRGDYWGQGTQVTVSS ) = high polyreactivity

Next:
Reported polyreactivity (PSR sort gate) ( QVQLVESGGGLDQAGGSLRLSCPASGRTISRNTMGWYRPAPGKERELVAGITYGGDRTYYADSVKGRFTISRDNAKNTVYLQMNSLKPEDTAVYYCAAPWYWKGLRDYWGQGTQVTVSS ) = low polyreactivity

###

assay: yeast display, Sf9 membrane polyspecificity reagent, FACS + sequencing; frameworks hold sequencing errors
quantity: polyreactivity (PSR sort gate)

Reported polyreactivity (PSR sort gate) ( QVQLVESGGGLVQAGGSLRLSCAASGRIFPVYAMGWYRQAPGKERELVATITSRTGRTYYADSVKGRFTISRDNAKNTVYLQMNSLIPEDTAVSYCAARGYYSAPGYGYWGQGTQVTVSS ) = high polyreactivity

Reported polyreactivity (PSR sort gate) ( QVQLVESGGGLVQAGGSLRLSCAASGSTLAVYAMGSYRQAPGKERELVAAISKRGGTTYYADSVKGRFTISRDNAKNTVYLQMYSLKPDDTAVYYCARESYYRGNYDYDYWGQGTQVTVSS ) = high polyreactivity

Reported polyreactivity (PSR sort gate) ( QVQLVESGGGLVQAGGSLRLSCAAYGSIFGSYCMGWYRQAPGKERELVAAIRVSGGSTYYADSVKGRFTISRDNAKNTVYLQMNSLKPEDTAVYYCAARARSTPRKYYYTRGYWGQGSQVTVSS ) = high polyreactivity
